tested on: Staph. aureus (Pen-Res) A-9606; assay: MIC, tube dilution, Staphylococcus aureus A9606 (Pen-Res); assay type: cell-based; conditions: Staphylococcus aureus, Staph. aureus A9606 (Pen-Res); overnight 37° C.; read-out: Minimum Inhibitory Concentration (M.I.C.)
result_type: MIC (µg/mL)
Answer format: numeric, µg/mL implied, no suffix.

Answered cases to consult:
[[record]]
compound = "O=C(O)C1=CSC2CC(=O)N12 (centres unmarked)"
quantitative_result = 8

[[record]]
compound = "CC1=C(C(=O)O)N2C(=O)C(C(C)(C)O)C2S1 (centres unmarked)"
quantitative_result = 4

[[record]]
compound = "O=C(O)C1=C(c2cscn2)SC2CC(=O)N12 (centres unmarked)"
quantitative_result = 8

[[record]]
compound = "CCCC(N)C1=C(C(=O)O)N2C(=O)CC2S1 (centres unmarked)"
quantitative_result = 16

[[record]]
compound = "CC(N)CCC1=C(C(=O)O)N2C(=O)C[C@H]2S1 (some centres unmarked)"
quantitative_result = 0.5


-- ask Using the record for CSCC1=C(C(=O)O)N2C(=O)C[C@H]2S1 , report its MIC.
-- reply 8

-- ask Using the record for NCC[S+]([O-])CC1=C(C(=O)O)N2C(=O)C[C@H]2S1 (some centres unmarked) , report its MIC.
-- reply 4

-- ask Using the record for O=C(O)C1=C(COc2ccccc2)S[C@@H]2CC(=O)N12 , report its MIC.
-- reply 0.5

-- ask Using the record for C[C@@H](O)[C@H]1C(=O)N2C(C(=O)O)=C(CN)S[C@H]12 (relative stereo) , report its MIC.
-- reply 0.25

-- ask Using the record for C[C@@H](O)[C@H]1C(=O)N2C(C(=O)O)=C([C@H]3C[C@H](N)C3)S[C@H]12 (relative stereo) , report its MIC.
-- reply 0.06

-- ask Using the record for CC1=C(C(=O)O)N2C(=O)[C@H]([C@@H](C)O)[C@H]2S1 (relative stereo) , report its MIC.
-- reply 4

-- ask Using the record for Cc1cc(C)n(CC2=C(C(=O)O)N3C(=O)CC3S2)n1 (centres unmarked) , report its MIC.
-- reply 4

-- ask Using the record for CC1=C(C(=O)O)N2C(=O)[C@H]([C@H]3COC(C)(C)O3)[C@H]2S1 (relative stereo) , report its MIC.
-- reply 63

-- ask Using the record for CCCC1=C(C(=O)O)N2C(=O)C[C@H]2S1 , report its MIC.
-- reply 16

-- ask Using the record for O=C(O)C1=C(Cn2cnnn2)SC2CC(=O)N12 (centres unmarked) , report its MIC.
-- reply 4

-- ask Using the record for NCC(=O)OCC1=C(C(=O)O)N2C(=O)CC2S1 (centres unmarked) , report its MIC.
-- reply 2

-- ask Using the record for CC1=C(C(=O)O)N2C(=O)C[C@H]2S1 , report its MIC.
-- reply 1
